Origin of measurements: ChEMBL document CHEMBL1201862

Give GI50 for every item shown.
Test system: T47D
assay method text: NCI tumour cell line growth inhibition, 48 h
Activity calls are given as the source filed them. Cut-off read from the data, not from the text of the source: active = GI50 up to about 1.1 µM and inactive = higher.

[
  {
    "molecule": "COC1OC(Cc2nnc(C)o2)C(OCc2ccccc2)C(OCc2ccccc2)C1OCc1ccccc1 (centres undefined)",
    "GI50": "52.5 µM (inactive)"
  },
  {
    "molecule": "CCOC(=O)C(=O)/C(=C/n1c(=S)[nH]c2ccc([N+](=O)[O-])cc21)C(=O)OCC",
    "GI50": "> 100 µM (inactive)"
  },
  {
    "molecule": "C/C=C(/C)C(=O)O[C@H]1C[C@@H]2[C@@H](O)c3occ(C)c3C[C@]2(C)[C@@H](C)C1",
    "GI50": "11.6 µM (inactive)"
  },
  {
    "molecule": "O=C1C(=CNC(=S)c2ccccc2)C(=O)c2ccccc21",
    "GI50": "60.1 µM (inactive)"
  },
  {
    "molecule": "Oc1c(Cl)ccc2cccnc12",
    "GI50": "1.2 µM (inactive)"
  },
  {
    "molecule": "CCS(=O)(=O)CCn1cnc2c1c(=O)n(C)c(=O)n2C",
    "GI50": "> 100 µM (inactive)"
  }
]

Go through the list and state GI50 for each entry.
1. CC(=O)Nc1ccc2c(c1)/C(=N/c1ccc(C(=O)O)cc1)c1ccccc1-2
2. C[C@@]12C[C@@H](c3ccccc3O1)N1Cc3ccccc3CSC1=N2
3. COc1ccc(OC)c(/C=C/c2ccnc3ccccc23)c1
4. COc1ccc(OC)c(C2CCc3cnc4nc(N)nc(N)c4c3C2)c1 (centres undefined)

A:
["28 µM (inactive)", "72.9 µM (inactive)", "1.63 µM (inactive)", "> 100 µM (inactive)"]

* * *

Tested on: SNB-78
assay method text: NCI tumour cell line growth inhibition, 48 h
Active and inactive are the calls of the source. No stated cut-off is given here; in the data, active = GI50 up to about 1.1 µM and inactive = higher.
For each record, write down the corresponding GI50.

// below: answered compounds
[
  {
    "compound": "COc1ccc(C(=O)O/N=C2/CCC/C2=C\\c2ccccc2)cc1",
    "result value": "> 68.5 µM (inactive)"
  },
  {
    "compound": "CC(=O)NN1C(=O)C(Cc2ccccc2)c2ccccc21 (configuration not stated)",
    "result value": "> 100 µM (inactive)"
  },
  {
    "compound": "Oc1ncc(N(CCCl)CCCl)c(O)n1 [URACIL MUSTARD]",
    "result value": "79.6 µM (inactive)"
  },
  {
    "compound": "CC(=O)Nc1ccc(C2=N/C(=C\\c3ccc(Cl)c(Cl)c3)C(=O)O2)cc1",
    "result value": "> 100 µM (inactive)"
  }
]

Your task in this section: give GI50 for each listed record.
1. N#CC(C(=O)/C(=N\NC(N)=O)C(C#N)c1ccc(Cl)cc1)c1ccc(Cl)cc1 (configuration not stated)
2. COc1c(Br)cc(Br)c(OC)c1-c1ccc[nH]1
3. C1CCNCC1.S=C(S)N1CCCCC1

A:
> 100 µM (inactive)
> 100 µM (inactive)
100 µM (inactive)

* * *

System: SNB-75
assay method text: NCI tumour cell line growth inhibition, 48 h
Activity calls are given as the source filed them. Rule as the data show it: active = GI50 up to about 1.1 µM and inactive = higher.
readout label: GI50

Observe how each entry below is paired with its result.
[
  {
    "compound": "O=[N+]([O-])c1cc(Cl)ccc1S(=O)(=O)c1ccccc1",
    "GI50": "30.8 µM (inactive)"
  },
  {
    "compound": "COS(=O)c1cc(Cl)cc(Cl)c1OC(=O)CSSCC(=O)Oc1c(Cl)cc(Cl)cc1S(=O)OC (stereo not given)",
    "GI50": "24.7 µM (inactive)"
  },
  {
    "compound": "Oc1c(Cl)ccc2cccnc12",
    "GI50": "11.6 µM (inactive)"
  },
  {
    "compound": "C=C(C)[C@@H]1CCC2=C[C@H](OC2=O)[C@@]2(C)C[C@@H]2C2=CC(C)=C(O2)[C@H]1O",
    "GI50": "35.5 µM (inactive)"
  }
]

Dear reader, for each entry below, please note its GI50.
1. CS/C(=N/C(=O)c1ccccc1)SCCS/C(=N\C(=O)c1ccccc1)SC
2. O=C(N/C(=C\c1cccc([N+](=O)[O-])c1)c1nc2ccccc2[nH]1)c1ccccc1
3. COC(=O)C1=C(SC)SC2(C(=O)OC)C3C=C(C)C4C(N13)C42C(=O)OC (stereo not given)
4. CCOC(=O)CN1C(=O)c2cc([N+](=O)[O-])cc3cc([N+](=O)[O-])cc(c23)C1=O

A:
1: 33.8 µM (inactive); 2: 36.4 µM (inactive); 3: > 100 µM (inactive); 4: 84.3 µM (inactive)

Dear colleague, could you send me GI50 for each of the items below? Thanks.
1. CCCC(=O)OCC(O)CO (stereo not given)
2. COC(=O)C(CCC(=O)CCl)N1C(=O)c2ccccc2C1=O (stereo not given)

A:
["> 5000 µM (inactive)", "8.13 µM (inactive)"]

* * *

System: T47D
assay method text: NCI tumour cell line growth inhibition, 48 h
Activity calls are given as the source filed them. Cut-off read from the data, not from the text of the source: active = GI50 up to about 1.1 µM and inactive = higher.
Kindly state GI50 for each of the entries shown.

[
  {
    "compound": "COc1ccc(NC(=O)/C(O)=C/C(=O)c2ccccc2)cc1",
    "result value": "> 10 µM (inactive)"
  },
  {
    "compound": "NS(=O)(=O)c1ccc(NC(=S)NC(=O)Nc2ccc(Cl)c(Cl)c2)cc1",
    "result value": "10.7 µM (inactive)"
  },
  {
    "compound": "COc1ccc(C(OCC2OC(n3ccc(NC(=O)c4ccccc4)nc3=O)CC2OP2(=S)SCCS2)(c2ccccc2)c2ccc(OC)cc2)cc1 (stereo not given)",
    "result value": "36.3 µM (inactive)"
  },
  {
    "compound": "COc1ccc(/C=C2\\N=C3NC(=O)C(N4CCOCC4)=C(N)N3C2=O)cc1",
    "result value": "> 100 µM (inactive)"
  },
  {
    "compound": "CCO/N=C(/CC)c1ccc(Br)s1",
    "result value": "> 100 µM (inactive)"
  }
]

Provide GI50 values for the following items, in order.
1. Cc1cc2c(c(/C=N/c3ccc([N+](=O)[O-])cc3)c1)OC1(C=C2)Oc2ccccc2C(=O)N1C (stereo not given)
2. COC(=O)C(CCC(=O)CCl)N1C(=O)c2ccccc2C1=O (stereo not given)
3. CCOC(=O)CN1C(=O)c2cc([N+](=O)[O-])cc3cc([N+](=O)[O-])cc(c23)C1=O
4. Nc1cccc(OCC2CCCN3CCCCC23)c1 (stereo not given)
5. Cn1cc(-c2cnc(-c3cn(C)c4ccccc34)cn2)c2ccccc21

A:
7.89 µM (inactive)
6.25 µM (inactive)
> 100 µM (inactive)
17.8 µM (inactive)
44.8 µM (inactive)

* * *

Tested on: MOLT-4
assay method text: NCI tumour cell line growth inhibition, 48 h
Active and inactive are the calls of the source. No stated cut-off is given here; in the data, active = GI50 up to about 1.1 µM and inactive = higher.
Select the correct class. Options are True for active, False for inactive and nothing else.

Sample answers from the record:
[
  {
    "compound": "COc1cc2c(cc1Oc1c(Oc3c(O)c(OC)cc4c3C(CC(C)C)N(C)CC4)c(OC)cc3c1C(CC(C)C)N(C)CC3)C(CC(C)C)N(C)CC2 (stereo not given)",
    "experimental target": "MOLT-4",
    "cat": "True"
  },
  {
    "compound": "CC(=O)Nc1ccccc1-c1nc2ccccc2nc1-c1ccccc1",
    "experimental target": "MOLT-4",
    "cat": "False"
  },
  {
    "compound": "Cc1cc(C)nc(NS(=O)(=O)c2ccc(NC(=O)c3cccc4c(Nc5ccc(S(=O)(=O)N=C(N)N)cc5)c5ccccc5nc34)cc2)n1",
    "experimental target": "MOLT-4",
    "cat": "False"
  },
  {
    "compound": "C#CCn1c2c(c3ccccc3c1=O)C(=O)c1ccccc1-2",
    "experimental target": "MOLT-4",
    "cat": "False"
  }
]

# next compound below
Q: Which outcome did this test record for the compound COCCOC(C)C(=O)C(O)S(=O)(=O)O (stereo not given) ?
A: False

* * *

Tested on: DLD-1
assay method text: NCI tumour cell line growth inhibition, 48 h
Active and inactive are the calls of the source. Cut-off read from the data, not from the text of the source: active = GI50 up to about 1.1 µM and inactive = higher.
Field: GI50. Provide a value for each of the compounds that follow.

Recorded results for 8 compounds are shown here.
[
  {
    "compound": "O=C1c2ccccc2C2(O)c3cc4ccccc4cc3OC12O (centres undefined)",
    "GI50": "> 100 µM (inactive)"
  },
  {
    "compound": "O=C(/C=C/c1ccccc1F)C(c1ccccc1)c1ccccc1",
    "GI50": "3.24 µM (inactive)"
  },
  {
    "compound": "CC(C)(C)c1ccc2c(c1)S(=O)(=O)Nc1ccccc1NS(=O)(=O)c1cc(C(C)(C)C)ccc1OCCOCCOCCO2",
    "GI50": "> 100 µM (inactive)"
  },
  {
    "compound": "O=C(NCc1ccncc1)C1COc2cc(-c3cc(=O)c4ccccc4o3)ccc2O1 (centres undefined)",
    "GI50": "> 100 µM (inactive)"
  },
  {
    "compound": "O=[N+]([O-])C1(CO)COC(CCc2ccccc2)OC1 (centres undefined)",
    "GI50": "> 100 µM (inactive)"
  },
  {
    "compound": "CC(CC(=O)N1C(=O)C(C)(C)[C@@H](O)[C@H]1CC(C)C(Cl)(Cl)Cl)C(Cl)(Cl)Cl (some centres undefined)",
    "GI50": "> 100 µM (inactive)"
  },
  {
    "compound": "O=C1CCCCC1CN1CCCC1 (centres undefined)",
    "GI50": "> 100 µM (inactive)"
  },
  {
    "compound": "COc1cc(/C=C2/C(=O)N(C(=O)OCc3ccccc3)C(Cc3cc(OC)c(OC)c(C)c3OC)C(=O)N2Cc2ccccc2)c(OC)c(C)c1OC (centres undefined)",
    "GI50": "> 100 µM (inactive)"
  }
]

# evaluate next
Q: For the compound CC(=O)Nc1ccc(-c2nnc(SCC(=O)Nc3ccc([N+](=O)[O-])cc3)o2)cc1 , what GI50 is on record?
A: 11.9 µM (inactive)
